Provenance of the data: paper PMC4336329

assayed_target: human ether-à-go-go-related gene (hERG) potassium channel (human, UniProt Q12809)
Sequence (Q12809 whole entry, looked up): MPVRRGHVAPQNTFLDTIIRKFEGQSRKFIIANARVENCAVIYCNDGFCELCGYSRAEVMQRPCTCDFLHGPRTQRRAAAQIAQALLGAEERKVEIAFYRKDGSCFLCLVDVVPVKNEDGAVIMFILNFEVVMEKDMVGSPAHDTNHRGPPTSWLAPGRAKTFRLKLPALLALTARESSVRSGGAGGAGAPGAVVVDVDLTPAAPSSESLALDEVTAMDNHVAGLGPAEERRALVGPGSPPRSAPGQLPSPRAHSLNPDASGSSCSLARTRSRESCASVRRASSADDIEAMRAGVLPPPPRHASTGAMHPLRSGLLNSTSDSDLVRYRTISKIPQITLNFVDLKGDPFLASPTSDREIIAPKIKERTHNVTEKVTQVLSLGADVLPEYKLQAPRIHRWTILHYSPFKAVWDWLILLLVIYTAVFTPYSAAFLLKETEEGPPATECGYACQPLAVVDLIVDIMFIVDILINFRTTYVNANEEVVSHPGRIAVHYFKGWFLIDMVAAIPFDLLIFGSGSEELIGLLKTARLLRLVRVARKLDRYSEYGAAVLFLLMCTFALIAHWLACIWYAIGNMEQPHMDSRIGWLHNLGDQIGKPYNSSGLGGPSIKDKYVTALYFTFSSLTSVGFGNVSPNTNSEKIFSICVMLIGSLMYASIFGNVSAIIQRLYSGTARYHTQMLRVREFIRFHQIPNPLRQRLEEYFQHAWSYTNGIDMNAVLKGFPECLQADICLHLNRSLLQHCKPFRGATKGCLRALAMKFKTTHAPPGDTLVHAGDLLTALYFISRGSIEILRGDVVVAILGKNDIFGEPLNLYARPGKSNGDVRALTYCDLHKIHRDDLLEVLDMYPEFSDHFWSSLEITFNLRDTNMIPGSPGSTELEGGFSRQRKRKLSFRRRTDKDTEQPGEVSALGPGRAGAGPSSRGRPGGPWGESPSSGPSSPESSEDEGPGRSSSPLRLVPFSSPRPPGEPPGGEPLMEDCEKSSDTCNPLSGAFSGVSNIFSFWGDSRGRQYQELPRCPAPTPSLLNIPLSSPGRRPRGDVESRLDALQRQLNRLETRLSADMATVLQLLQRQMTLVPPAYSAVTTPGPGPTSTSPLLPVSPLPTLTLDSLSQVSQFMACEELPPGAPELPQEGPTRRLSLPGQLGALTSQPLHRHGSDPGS
procedure_text: primary screen, population patch clamp on CHO cells stably expressing hERG; higher = less effect of the substance
The whole screen tested about 310,000 compounds, of which about 14,000 (4.5%) showed an effect of 50% or more. The effect is printed as a negative number. The list comes from a sample in which strong results are over-represented; it also holds close analogues and randomly drawn compounds.
experimental_readout: hERG current change (%, negative = inhibition) at 10uM (%)

>>> assay_result("O=C(NCCCn1ccnc1)c1nn2c(C(F)(F)F)cc(-c3ccccc3)nc2c1Cl")
-29.6
>>> assay_result("CCCNC(=O)c1nn2c(C(F)(F)F)cc(-c3ccccc3)nc2c1Cl")
-4.1
>>> assay_result("CCOC(=O)C1C(=O)CC(C)(O)C(C(=O)OCC)C1c1ccc([N+](=O)[O-])cc1 (stereo not shown)")
-8.06
>>> assay_result("COc1ccc(CCNC(=O)Cn2nnc(-c3cccs3)n2)cc1OC")
-7.76
>>> assay_result("CCCNc1nc(C)nc2c1cnn2CCc1ccccc1")
-12.8
>>> assay_result("CC(C)Cn1c(N)c(C(=O)COC(=O)CN2C(=O)C3CC=CCC3C2=O)c(=O)n(C)c1=O (stereo not shown)")
-4.23
>>> assay_result("CCOc1ccc(-c2noc(CCC(=O)O)n2)cc1")
-1.59
>>> assay_result("CCOC(=O)c1ccc(S(=O)(=O)N2CCN(CCC#N)CC2)cc1")
-14.7
>>> assay_result("O=C(Nc1ccc(S(=O)(=O)NC2=NCCCCC2)cc1)c1ccco1")
2.7
>>> assay_result("O=C(NCCCn1ccnc1)c1nn2c(C(F)(F)F)cc(-c3ccc(Br)cc3)nc2c1Cl")
-65.7

* * *

Listed here are molecules together with their documented hERG current change (%, negative = inhibition) at 10uM.
assayed_target: human ether-à-go-go-related gene (hERG) potassium channel (human);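 also: peak tail current of the secondary pulse compared with the same well before compound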
procedure_text: primary screen, population patch clamp on CHO cells stably expressing hERG; higher = less effect of the substance
In all, about 310,000 compounds went through this assay and about 14,000 (4.5%) showed an effect of 50% or more. The effect is printed as a negative number. This excerpt belongs to a sample that is enriched for strong results.
experimental_readout: hERG current change (%, negative = inhibition) at 10uM (%)

>>> assay_result("CC(C)Cn1c(N)c(C(=O)COC(=O)[C@H](C)NC(=O)c2ccccc2Cl)c(=O)n(C)c1=O")
-53.1
>>> assay_result("Cc1ccc(C(C)C)c(OCC(=O)OCC(=O)c2c(N)n(C)c(=O)n(C)c2=O)c1")
3.36
>>> assay_result("O=C(Nc1ccccc1N1CCOCC1)c1ccncc1")
-1.93
>>> assay_result("CC(C)Cn1c(N)c(C(=O)COC(=O)c2ccccc2F)c(=O)n(C)c1=O")
-14.7
>>> assay_result("CCOc1ccccc1C(=O)NCCC(=O)O")
8.38

* * *

assayed_target: human ether-à-go-go-related gene (hERG) potassium channel (human);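 also: peak tail current of the secondary pulse compared with the same well before compound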
procedure_text: primary screen, population patch clamp on CHO cells stably expressing hERG; higher = less effect of the substance
Hit rate of the full screen: of about 310,000 compounds, about 14,000 (4.5%) showed an effect of 50% or more. The effect is printed as a negative number. What follows is part of a selection rich in strong results, with near analogues and random picks from the rest.
Decision: hERG current change (%, negative = inhibition) at 10uM >= -20% yields fulfilled, all other cases yield not fulfilled.

>>> group("CCOC(=O)C1=C(C)N(CCCC(=O)O)C(=O)NC1c1ccccc1OS(=O)(=O)c1ccc(C)cc1 (stereo not drawn)")
"fulfilled"
>>> group("O=C(CCCc1ccccc1)Nc1ccnn1C1CCN(Cc2ccc(Cl)cc2)CC1")
"not fulfilled"
>>> group("CC(C)n1cc(CN2CCC(n3nccc3NC(=O)CCCc3ccccc3)CC2)cn1")
"not fulfilled"
>>> group("COc1ccc(NC(=O)CSCC(=O)N(C)CC(=O)Nc2c(C)cccc2C)cc1")
"fulfilled"
>>> group("CC(=O)N[C@@H](C)C(=O)N1CCC(n2nccc2NC(=O)CCCc2ccccc2)CC1")
"fulfilled"
>>> group("O=C(CCCc1ccccc1)Nc1ccnn1C1CCN(Cc2ccccc2)CC1")
"not fulfilled"
>>> group("Cc1ccc(C)c(CN2CCC(n3nccc3NC(=O)CCCc3ccccc3)CC2)c1")
"not fulfilled"
>>> group("Cc1ccccc1CN1CCC(n2nccc2NC(=O)CCCc2ccccc2)CC1")
"not fulfilled"
>>> group("O=C(CCCc1ccccc1)Nc1ccnn1C1CCN(Cc2ccc(CO)o2)CC1")
"fulfilled"

* * *

Entries and their measured hERG current change (%, negative = inhibition) at 10uM follow.
assayed_target: human ether-à-go-go-related gene (hERG) potassium channel (human, UniProt Q12809);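 also: peak tail current of the secondary pulse compared with the same well before compound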
procedure_text: primary screen, population patch clamp on CHO cells stably expressing hERG; higher = less effect of the substance
About 14,000 (4.5%) of roughly 310,000 compounds showed an effect of 50% or more. Effects have a minus sign here. The sample holds strong results, similar compounds and a random draw of the others, so the mix is not that of the screen.
experimental_readout: hERG current change (%, negative = inhibition) at 10uM (%)

>>> assay_result("O=C(Nc1ccc2cn[nH]c2c1)c1ccc(S(=O)(=O)N2CCOCC2)cc1")
-19.7
>>> assay_result("O=C(CSc1nc(=O)n(CCCN2CCOCC2)c2c1CCC2)Nc1ccc(F)cc1F")
-41.8
>>> assay_result("O=c1[nH]nc(Sc2ncnc3sccc23)n1CCc1ccccc1")
-18.3
>>> assay_result("COCCCn1c(SCC(=O)Nc2sc3c(c2C#N)CCCC3)nnc1-c1ccncc1")
-49.4
>>> assay_result("CCn1c(SCC(=O)Nc2oc(-c3ccccc3)c(-c3ccccc3)c2C#N)nnc1-c1cc(OC)cc(OC)c1")
-5.33
>>> assay_result("Cc1ccc(-c2nnc(CCC(=O)NCC3C4CC5CC(C4)CC3C5)o2)s1 (stereo not drawn)")
-6.1
>>> assay_result("CC(=O)Nc1cccc(NC(=O)CSc2nc(=O)n(CCN3CCOCC3)c3c2CCCC3)c1")
0.233
>>> assay_result("O=C(CSc1nc(=O)n(CCCN2CCOCC2)c2c1CCC2)Nc1cccc(F)c1")
-37.4
>>> assay_result("COc1ccccc1N=Nc1c(C)noc1C")
10.6

* * *

Measured hERG current change (%, negative = inhibition) at 10uM, listed per entry for reference.
assayed_target: human ether-à-go-go-related gene (hERG) potassium channel (human);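 also: peak tail current of the secondary pulse compared with the same well before compound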
procedure_text: primary screen, population patch clamp on CHO cells stably expressing hERG; higher = less effect of the substance
Out of some 310,000 compounds screened, about 14,000 (4.5%) showed an effect of 50% or more. The effect is printed as a negative number. This excerpt belongs to a sample that is enriched for strong results.
experimental_readout: hERG current change (%, negative = inhibition) at 10uM (%)

>>> assay_result("COc1cc(/C=N/NC(=O)C(=O)NCc2cccnc2)cc(OC)c1OC")
5.17
>>> assay_result("Cc1cc2c(cc1C)N(Cc1ccccc1)C1=NCCCN12.Cl")
-72.3
>>> assay_result("CCO[C@H]1OC(C(=O)N2CCN(Cc3ccccc3)CC2)=C[C@@H](c2cn(C(C)=O)c3ccccc23)[C@@H]1CCCO")
-54
>>> assay_result("CCO[C@@H]1OC(C(=O)N2CCN(Cc3ccccc3)CC2)=C[C@H](c2cn(C(C)=O)c3ccccc23)[C@H]1CCCO")
-37.9
>>> assay_result("Cc1ccc(S(=O)(=O)NNC(=O)c2ccoc2C)cc1")
-70.6
>>> assay_result("Cc1occc1C(=O)NNS(=O)(=O)c1ccc(Cl)cc1")
7.64
>>> assay_result("Cc1ccn2cc(CCNS(=O)(=O)c3ccc([N+](=O)[O-])cc3)nc2c1")
-69.7
>>> assay_result("O=C(Nc1ccccc1OC(F)F)c1cccc(S(=O)(=O)N2CCCC2)c1")
-23.6
>>> assay_result("CCc1ccc(S(=O)(=O)NCCc2cn3cccc(C)c3n2)s1")
-16.2
>>> assay_result("CC(=O)c1ccc(S(=O)(=O)NCCc2cn3ccc(C)cc3n2)cc1")
-29.9
>>> assay_result("COc1ccc(S(=O)(=O)Nc2ccc(S(=O)(=O)NCC3CCCO3)cc2)cc1 (centres unmarked)")
6.4
>>> assay_result("CC(NC(=O)c1ccccc1SCC(=O)N1CCCC1)c1ccccc1 (centres unmarked)")
-26.1
>>> assay_result("Cc1cc(C)nc(SCCc2ccncc2)n1.Cl")
9.82
>>> assay_result("Cc1c(Cl)cccc1-c1ccc(CNCc2ccccn2)o1.Cl")
8.15
>>> assay_result("CCC(C)[C@H](NC(=O)N1CC(=O)Nc2ccccc21)C(=O)N1CCC[C@@H]1C(=O)O (some centres unmarked)")
13.5
>>> assay_result("CCOC(=O)NC1(C(F)(F)F)N=C(c2ccccc2)NC1=O (centres unmarked)")
4.77
>>> assay_result("O=C(Nc1ccc(Nc2ccccc2)cc1)c1cc([N+](=O)[O-])ccc1Cl")
11.2
>>> assay_result("COc1ccc2[nH]cc(CCNC(=O)c3ccco3)c2c1")
12.3
>>> assay_result("CCO[C@@H]1OC(C(=O)Nc2ccccc2)=C[C@H](c2coc3ccccc3c2=O)[C@H]1CCCO")
-50.9
>>> assay_result("CCc1nc(N=Nc2c(O)[nH]c3ccccc23)c2c3c(sc2n1)CCC3")
13.7
>>> assay_result("Cc1cc(C)c[n+](CC(=O)c2ccccc2)c1.[Br-]")
22.8
>>> assay_result("CCOc1ccc(S(=O)(=O)NCCc2cn3ccccc3n2)cc1")
-11
>>> assay_result("COc1ccc(OC)c2sc(NC(=O)c3ccc(S(=O)(=O)N4CCOCC4)cc3)nc12")
-2.05
>>> assay_result("CC(C(=O)N1CCCc2c1c(=O)oc1ccc(O)cc21)N1CCc2ccccc2C1 (centres unmarked)")
-56.5
>>> assay_result("Cc1onc(-c2ccccc2)c1-c1csc(N/N=C/c2ccccc2)n1")
8.79
>>> assay_result("CCO[C@@H]1OC(C(=O)NCc2nc3ccccc3[nH]2)=C[C@H](c2csc3ccccc23)[C@H]1CCCO")
-34.1
>>> assay_result("CCc1ccc(S(=O)(=O)NCCc2cn3ccc(C)cc3n2)s1")
-54.2
>>> assay_result("N#CCc1c(C#N)c(N)nc(N2CCCC(CO)C2)c1C#N (centres unmarked)")
1.82
>>> assay_result("COc1ccc(C2Nc3ccccc3C(=O)N2NC(=O)c2ccccc2)cc1OC (centres unmarked)")
3.24
>>> assay_result("COc1ccc2[nH]cc(C(=O)CCl)c2c1")
8.92
>>> assay_result("CCO[C@H]1OC(C(=O)NCc2nc3ccccc3[nH]2)=C[C@@H](c2cn(C(C)=O)c3ccccc23)[C@@H]1CCCO")
-49.7
>>> assay_result("CCOC(=O)Cn1nnnc1CN(Cc1ccccc1)Cc1cc2cc(CC)ccc2[nH]c1=O")
-11.2
>>> assay_result("Cc1occc1C(=O)NNS(=O)(=O)c1ccc([N+](=O)[O-])cc1")
10.5
>>> assay_result("Cc1cc(C)c[n+](CC(=O)c2c(C)cc(C)c([N+](=O)[O-])c2C)c1.[Br-]")
-68.6
>>> assay_result("CCO[C@H]1OC(C(=O)Nc2ccccc2)=C[C@@H](c2cn(C(C)=O)c3ccccc23)[C@@H]1CCCO")
-62.5
>>> assay_result("O=c1c2c3nc4ccccc4nc3n(/N=C/c3ccccn3)c2ncn1-c1ccccc1")
19.8
>>> assay_result("O=[N+]([O-])c1ccc(S(=O)(=O)NCCc2cn3ccccc3n2)cc1")
-40.6
>>> assay_result("CN(C)c1nc(N)c([N+](=O)[O-])c(N2CCCCCC2)n1")
2.69
